molecular target: CaBem1-D1; experiment: SPOT peptide array binding signal intensity (averaged, normalized) (arbitrary units (background-subtracted, floor 0; scale differs between SH3 domains)); higher = stronger binding of the SH3 domain to the peptide
Consider the following binders; for each one, report its SPOT peptide array binding signal intensity.
Numbers only.

Study these solved cases before continuing.
| binder | recorded measurement |
| --- | --- |
| TIRRRAPLSLLESHT | 21.5 |
| IAPIPMPKPNPTHIS | 48.5 |
| PLQSKIPMLPSRRTM | 10.5 |
| RLSFFFPLDPAYIRN | 24 |
| PSTMDFPKLPSFQNS | 54 |
| NMLSRPRLAKLPSIR | 526 |

Looking for the measured SPOT peptide array binding signal intensity of ATKSASPTLPTRRSR , can you help?
51
